Where these numbers come from: ChEMBL document CHEMBL3885861

Organism: Rattus norvegicus
experimentalProtocol: Open TG-GATES - Regimen: Single
Type: toxicity, organism-based, Sprague-Dawley
Set-up: regimen Single, gender Male, age 6 weeks
protocolConditions: in vivo, po, 0 mg/kg, 9 h, tissue Kidney, route gavage, dose level Control
KIDNEY_TOTAL for assorted compounds
Report as a plain number; the unit g is understood.

Consider the worked cases shown below.
compound	KIDNEY_TOTAL / g
CS(=O)(=O)O.Cc1ccc(NC(=O)c2ccc(CN3CCN(C)CC3)cc2)cc1Nc1nccc(-c2cccnc2)n1 [IMATINIB MESYLATE]	1.8
CN/C(=N/CCSCc1nc[nH]c1C)NC#N	1.8
CCOc1ccc(NC(C)=O)cc1	1.9
CNC(=C[N+](=O)[O-])NCCSCc1ccc(CN(C)C)o1	1.9

With those in mind, consider the next compound.
Look at this compound and give its reported KIDNEY_TOTAL. Cc1nnc2n1-c1ccc(Cl)cc1C(c1ccccc1Cl)=NC2
1.7

----------
Species: Rattus norvegicus
experimentalProtocol: Open TG-GATES - Regimen: Daily Repeat
Format: toxicity, organism-based, Sprague-Dawley
Set-up: regimen Daily Repeat, gender Male, age 6 weeks
protocolConditions: in vivo, po, 100 mg/kg, […], tissue Plasma, route gavage, dose level Low, time 14 day
AST for assorted compounds
Report as a plain number; the unit IU/L is understood.

Look at this compound and give its reported AST. O=C(OC[C@H]1O[C@@H](OC(=O)c2cc(O)c(O)c(OC(=O)c3cc(O)c(O)c(O)c3)c2)[C@H](OC(=O)c2cc(O)c(O)c(OC(=O)c3cc(O)c(O)c(O)c3)c2)[C@@H](OC(=O)c2cc(O)c(O)c(OC(=O)c3cc(O)c(O)c(O)c3)c2)[C@@H]1OC(=O)c1cc(O)c(O)c(OC(=O)c2cc(O)c(O)c(O)c2)c1)c1cc(O)c(O)c(OC(=O)c2cc(O)c(O)c(O)c2)c1
58.2

----------
Species: Rattus norvegicus
experimentalProtocol: Open TG-GATES - Regimen: Daily Repeat
Type: toxicity, organism-based, Sprague-Dawley
Set-up: regimen Daily Repeat, gender Male, age 6 weeks
protocolConditions: in vivo, po, 300 mg/kg, […], tissue Plasma, route gavage, dose level Middle, time 28 day
measurementType: PL (mg/dL)
Report as a plain number; the unit mg/dL is understood.

CNC(=C[N+](=O)[O-])NCCSCc1ccc(CN(C)C)o1 138.4

Look at this compound and give its reported PL. Cc1nnc2n1-c1ccc(Cl)cc1C(c1ccccc1Cl)=NC2
145.8

Look at this compound and give its reported PL. O=C(OC[C@H]1O[C@@H](OC(=O)c2cc(O)c(O)c(OC(=O)c3cc(O)c(O)c(O)c3)c2)[C@H](OC(=O)c2cc(O)c(O)c(OC(=O)c3cc(O)c(O)c(O)c3)c2)[C@@H](OC(=O)c2cc(O)c(O)c(OC(=O)c3cc(O)c(O)c(O)c3)c2)[C@@H]1OC(=O)c1cc(O)c(O)c(OC(=O)c2cc(O)c(O)c(O)c2)c1)c1cc(O)c(O)c(OC(=O)c2cc(O)c(O)c(O)c2)c1
141.8

Look at this compound and give its reported PL. CN/C(=N/CCSCc1nc[nH]c1C)NC#N
148

Look at this compound and give its reported PL. CCOc1ccc(NC(C)=O)cc1
156.2

Look at this compound and give its reported PL. COC(=O)C1=C(C)NC(C)=C(C(=O)OC)C1c1ccccc1[N+](=O)[O-]
146

----------
Organism: Rattus norvegicus
experimentalProtocol: Open TG-GATES - Regimen: Daily Repeat
Assay type: toxicity, organism-based, Sprague-Dawley
Design: regimen Daily Repeat, gender Male, age 6 weeks
protocolConditions: in vivo, po, 0 mg/kg, […], tissue Blood, route gavage, dose level Control, time 7 day
measurementType: Mono (%)
Report as a plain number; the unit % is understood.

Nc1c2c(nc3ccccc13)CCCC2 2.2
CCOc1ccc(NC(C)=O)cc1 2.6

With those in mind, consider the next compound.
Look at this compound and give its reported Mono. Cc1nnc2n1-c1ccc(Cl)cc1C(c1ccccc1Cl)=NC2
2.4

----------
Species on record: Rattus norvegicus
experimentalProtocol: Open TG-GATES - Regimen: Daily Repeat
Format: toxicity, organism-based, Sprague-Dawley
Set-up: regimen Daily Repeat, gender Male, age 6 weeks
protocolConditions: in vivo, po, 0 mg/kg, […], route gavage, dose level Control, time 14 day
measurementType: TERMINAL_BW (g)
Report as a plain number; the unit g is understood.

Consider the worked cases shown below.
molecule	TERMINAL_BW (g)
CCOc1ccc(NC(C)=O)cc1	332.8
CN(C)CCC(c1ccc(Cl)cc1)c1ccccn1 (stereo not drawn)	314.1
CN/C(=N/CCSCc1nc[nH]c1C)NC#N	315.1
CN1C(=O)CCS(=O)(=O)C1c1ccc(Cl)cc1 (stereo not drawn)	301.6
O=C(OC[C@H]1O[C@@H](OC(=O)c2cc(O)c(O)c(OC(=O)c3cc(O)c(O)c(O)c3)c2)[C@H](OC(=O)c2cc(O)c(O)c(OC(=O)c3cc(O)c(O)c(O)c3)c2)[C@@H](OC(=O)c2cc(O)c(O)c(OC(=O)c3cc(O)c(O)c(O)c3)c2)[C@@H]1OC(=O)c1cc(O)c(O)c(OC(=O)c2cc(O)c(O)c(O)c2)c1)c1cc(O)c(O)c(OC(=O)c2cc(O)c(O)c(O)c2)c1	306.2
Cc1nnc2n1-c1ccc(Cl)cc1C(c1ccccc1Cl)=NC2	313.4

Look at this molecule and give its reported TERMINAL_BW. Nc1c2c(nc3ccccc13)CCCC2
300.3

Look at this molecule and give its reported TERMINAL_BW. CCCc1cc(=O)[nH]c(=S)[nH]1
275

Look at this molecule and give its reported TERMINAL_BW. CC(C)NNC(=O)c1ccncc1
277.2

Look at this molecule and give its reported TERMINAL_BW. Brc1ccccc1
295

Look at this molecule and give its reported TERMINAL_BW. CNC(=C[N+](=O)[O-])NCCSCc1ccc(CN(C)C)o1
305.8

Look at this molecule and give its reported TERMINAL_BW. NC1=NC(=O)C(c2ccccc2)O1 (stereo not drawn)
326.9

Look at this molecule and give its reported TERMINAL_BW. COC(=O)C1=C(C)NC(C)=C(C(=O)OC)C1c1ccccc1[N+](=O)[O-]
320

----------
Species on record: Rattus norvegicus
experimentalProtocol: Open TG-GATES - Regimen: Daily Repeat
Assay type: toxicity, organism-based, Sprague-Dawley
Design: regimen Daily Repeat, gender Male, age 6 weeks
protocolConditions: in vivo, po, 1000 mg/kg, […], tissue Blood, route gavage, dose level High, time 28 day
measurementType: MCH (pg)
Report as a plain number; the unit pg is understood.

Consider the worked cases shown below.
compound	numericResult
O=C(OC[C@H]1O[C@@H](OC(=O)c2cc(O)c(O)c(OC(=O)c3cc(O)c(O)c(O)c3)c2)[C@H](OC(=O)c2cc(O)c(O)c(OC(=O)c3cc(O)c(O)c(O)c3)c2)[C@@H](OC(=O)c2cc(O)c(O)c(OC(=O)c3cc(O)c(O)c(O)c3)c2)[C@@H]1OC(=O)c1cc(O)c(O)c(OC(=O)c2cc(O)c(O)c(O)c2)c1)c1cc(O)c(O)c(OC(=O)c2cc(O)c(O)c(O)c2)c1 [TANNIC ACID]	19.4
CNC(=C[N+](=O)[O-])NCCSCc1ccc(CN(C)C)o1 [RANITIDINE]	20.1
CN/C(=N/CCSCc1nc[nH]c1C)NC#N [CIMETIDINE]	19
COC(=O)C1=C(C)NC(C)=C(C(=O)OC)C1c1ccccc1[N+](=O)[O-] [NIFEDIPINE]	20.5
CCOc1ccc(NC(C)=O)cc1 [PHENACETIN]	24.3

With those in mind, consider the next compound.
Look at this compound and give its reported MCH. Cc1nnc2n1-c1ccc(Cl)cc1C(c1ccccc1Cl)=NC2 [TRIAZOLAM]
19.7

----------
Species: Rattus norvegicus
experimentalProtocol: Open TG-GATES - Regimen: Single
Type: toxicity, organism-based, Sprague-Dawley
Set-up: regimen Single, gender Male, age 6 weeks
protocolConditions: in vivo, po, 300 mg/kg, 9 h, tissue Plasma, route gavage, dose level Middle
ALT for assorted compounds
Report as a plain number; the unit IU/L is understood.

compound	measurementType	numericResult
O=C(OC[C@H]1O[C@@H](OC(=O)c2cc(O)c(O)c(OC(=O)c3cc(O)c(O)c(O)c3)c2)[C@H](OC(=O)c2cc(O)c(O)c(OC(=O)c3cc(O)c(O)c(O)c3)c2)[C@@H](OC(=O)c2cc(O)c(O)c(OC(=O)c3cc(O)c(O)c(O)c3)c2)[C@@H]1OC(=O)c1cc(O)c(O)c(OC(=O)c2cc(O)c(O)c(O)c2)c1)c1cc(O)c(O)c(OC(=O)c2cc(O)c(O)c(O)c2)c1 [TANNIC ACID]	ALT	35
Cc1nnc2n1-c1ccc(Cl)cc1C(c1ccccc1Cl)=NC2 [TRIAZOLAM]	ALT	32
CN/C(=N/CCSCc1nc[nH]c1C)NC#N [CIMETIDINE]	ALT	31
COC(=O)C1=C(C)NC(C)=C(C(=O)OC)C1c1ccccc1[N+](=O)[O-] [NIFEDIPINE]	ALT	51.2

With those in mind, consider the next compound.
Look at this compound and give its reported ALT. CNC(=C[N+](=O)[O-])NCCSCc1ccc(CN(C)C)o1 [RANITIDINE]
32
